# Tested on: SKBR3 (PI3Kα-Wild Type) cell line
# experiment notes: HTRF phospho-AKT(S473) cell assay in SKBR3 cells
# Type: cell-based, human
# measurement setup: Homo sapiens, SK-BR-3; SKBR3 (PI3Kα-Wild Type) cells, HTRF phospho-AKT(S473), 2 hours compound incubation, PDGF-BB stimulated
pIC50: −log10 of the molar value.

molecule	pIC50
Cc1cc([C@@H](C)Nc2ccc(Cl)nc2C(=O)NS(C)(=O)=O)c2nc(N3CCC(c4cnc(C(F)F)cn4)CC3)n(C)c(=O)c2c1	5.30 to 6.00
CO[C@H]1CC[C@@H](n2ncc(-c3nc4c([C@@H](C)Nc5ccc(Cl)nc5C(=O)NS(C)(=O)=O)cc(C)cc4c(=O)n3C)c2C)CC1 (relative stereo)	≤ 5.30
Cc1cc([C@@H](C)Nc2ccc(Cl)nc2C(=O)NS(C)(=O)=O)c2nc(N3CCC4(CCN(c5ccn(C)n5)CC4)C3)n(C)c(=O)c2c1	5.30 to 6.00
Cc1cc([C@@H](C)Nc2ccc(Cl)nc2C(=O)NS(C)(=O)=O)c2nc(N3CCC4(CCN(c5ccn(C)n5)C4)C3)n(C)c(=O)c2c1 (stereo partly drawn)	5.30 to 6.00
CC(=O)N1CCN(c2ncc(-c3nc4c([C@@H](C)Nc5ccc(Cl)nc5C(=O)NS(C)(=O)=O)cc(C)cc4c(=O)n3C)cc2F)CC1	5.30 to 6.00
Cc1cc([C@@H](C)Nc2ccc(Cl)nc2C(=O)NS(C)(=O)=O)c2nc(N3CCC(c4nn(C)cc4F)CC3)n(C3CC3)c(=O)c2c1	≤ 5.30
Cc1cc([C@@H](C)Nc2ccc(Cl)nc2C(=O)NS(C)(=O)=O)c2nc(-c3ccc(N4CC5CCC(C4)C5O)nc3)n(C)c(=O)c2c1 (stereo partly drawn)	≤ 5.30
Cc1cc([C@@H](C)Nc2ccc(Cl)nc2C(=O)NS(C)(=O)=O)c2nc(N3C[C@@H]4C[C@H](c5cc[nH]n5)[C@H]3C4)n(C)c(=O)c2c1 (relative stereo)	≤ 5.30
Cc1cc([C@@H](C)Nc2ccc(Cl)nc2C(=O)NS(C)(=O)=O)c2nc(N3CC[C@H](Oc4ccnn4C)C3)n(C)c(=O)c2c1	5.30 to 6.00
Cc1cc([C@@H](C)Nc2ccc(Cl)nc2C(=O)NS(C)(=O)=O)c2nc(N3C4CCC3CN(c3cnn(C)c3)C4)n(C)c(=O)c2c1	5.30 to 6.00
Cc1cc([C@@H](C)Nc2ccc(Cl)nc2C(=O)NS(C)(=O)=O)c2nc(N3Cc4cnn(CC(F)(F)F)c4C3)n(C)c(=O)c2c1	5.30 to 6.00
Cc1cc([C@@H](C)Nc2ccc(Cl)nc2C(=O)NS(C)(=O)=O)c2nc(N(C)CC3CC3)n(C)c(=O)c2c1	5.30 to 6.00

Cited source: patent US12281122B1
